Provide the recorded self-cleavage kobs at 2500 uM GlcN6P for the entries that follow.
B1: glmS ribozyme (parent)
chain: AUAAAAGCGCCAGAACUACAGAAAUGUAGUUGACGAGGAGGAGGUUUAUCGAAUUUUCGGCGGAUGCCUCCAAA

Variants of: B1
Experiment: self-cleavage kobs at 2500 uM GlcN6P; higher = faster cleavage; RNA array
Details: with glucosamine-6-phosphate
Variants at the floor of the assay were thinned out.

These solved cases illustrate the format of a correct answer.
SEQUENCE_CHAIN: AUAAAAGCGGCAAAACUACAGAAAUGUAGUUGACGAGGAGGAAGUUUAUUGAAUUUUCGGCGGAUGCCUCCAAA [C10G G13A G43A C50U]
self-cleavage kobs at 2500 uM GlcN6P: < 1e-05 s⁻¹
--
SEQUENCE_CHAIN: AUAAAAUCGCCAGAACUACAGAAAUGUAGUUGACGAGGAGGAGGUUUAGCCAAUUUUCGGCGGCUCCCUCCAAA [G7U U49G G51C A64C G66C]
self-cleavage kobs at 2500 uM GlcN6P: < 1e-05 s⁻¹
--
SEQUENCE_CHAIN: AUAAAAGCGCCAGACCUACAGAAAUGUAGUUGACGAGGGGGAGGUUUAUCGAAUUGUCGGGGGAUGCCUCCAAA [A15C A39G U56G C61G]
self-cleavage kobs at 2500 uM GlcN6P: < 1e-05 s⁻¹
--
SEQUENCE_CHAIN: AUAAAACCGACAAAACUACAGAAAUGUAGUUGACGAAGAGGAGGAUUAUCGAAUUUUCGGCGGAUGCCUCCAAA [G7C C10A G13A G37A U45A]
self-cleavage kobs at 2500 uM GlcN6P: < 1e-05 s⁻¹
--
SEQUENCE_CHAIN: AUAAAAGCGGCAGAACUACAGAAAUGUAGUUGACGGGGAGGAGGUUUAUCGUAUUUUCGGCGGAUGCCUCCAAA [C10G A36G A52U]
self-cleavage kobs at 2500 uM GlcN6P: < 1e-05 s⁻¹
--
SEQUENCE_CHAIN: AUAAAAGCGCAAGAACUACAGAAAUGUAGUUGACGAGGAGGAGGUUUAUCGAAUUUUCGGCGGAUGCCCCCAAA [C11A U69C]
self-cleavage kobs at 2500 uM GlcN6P: 7.67e-05 s⁻¹
--
SEQUENCE_CHAIN: AUAAAAGCGCCAGUACUACAGAAAUGUAGUUGGCGAGGAGGAGGUUUAUCGGAUUUUCGGCGGAUGCUUGAAAA [A14U A33G A52G C68U C70G C71A]
self-cleavage kobs at 2500 uM GlcN6P: 0.000285 s⁻¹
--
SEQUENCE_CHAIN: AUAAAAGCGCCAGAACUACAGAAAUGUAGUUGACGAGGCGGCGGUUUAUCGAAUUUUCGGCGGAUACCUCCAAA [A39C A42C G66A]
self-cleavage kobs at 2500 uM GlcN6P: 0.00014 s⁻¹

Working through the 6 variants below one at a time, give self-cleavage kobs at 2500 uM GlcN6P for each.
1. AUAAAAGCGCCAGAAGUACAGAAAUGUAGUUAACGAGGAGGAGGUUUAUCGAAUUUUCGGCGGAUGCCUCCAAA [C16G G32A]
2. AUAAAAGCGCCAGUACUACAGAAAUGUAGUUGACGAGGAGGAGGUUUAUCUAAUUUUCGUCGGAUGCCUCCAAA [A14U G51U G60U]
3. AUAAAAGCGCCAGAACUACAGAAAUUUAGUUGACGAGGAGGAGGUUUAUCGAAAUUUCGGCGGAUGCCUCCAAA [G26U U54A]
4. AUAAAUGCGCCAGAACUACAGAAAUGUAGUUCACGAGGAGGAGGUUUAUCGAAUUUUCGGCGGAUGGCUCCAAA [A6U G32C C67G]
5. AUAAAAGCGCCAGAACUACAGAAAUGUAGUUGACGAGCAGGAGGUUCAACGAAUUUUCGGCGGAUGCCUCCAAA [G38C U47C U49A]
6. AUAAAAGCGCCAGAACUACAGAAAUGUAGUUGACGAGGAGGAGGUUUAUCGAAUCUUCGGCGGAUGCAUCCAAA [U55C C68A]

0.000434 s⁻¹
< 1e-05 s⁻¹
0.00265 s⁻¹
< 1e-05 s⁻¹
< 1e-05 s⁻¹
< 1e-05 s⁻¹

Working through the 2 variants below one at a time, give self-cleavage kobs at 2500 uM GlcN6P for each.
1. AUAAAAGCGCCAGAACUACAGAAAUGUAGUUAACGAGGACGAGGUUUAUCGAAUUUUCGGCGGAUGCCUCCAAA [G32A G40C]
2. AUAAAAGCGCUAGAACUACAGAAAUGUAGUUGAAGAGGAGGAGAUUUAUCGAAUUUUCGGCGGAUGCCUCCAAA [C11U C34A G44A]

0.000126 s⁻¹
< 1e-05 s⁻¹
